Assay: Solubility in water
Assay type: physicochemical
Details: in 100 ml of 25° C. water; read-out: Solubility (as anhydride)
Measure: solubility

>>> reading("OC[C@H]1O[C@H](O[C@H]2O[C@H](CO)[C@@H](O[C@H]3O[C@H](CO)[C@@H](O[C@H]4O[C@H](CO)[C@@H](O[C@H]5O[C@H](CO)[C@@H](O)[C@H](O)[C@H]5O)[C@H](O)[C@H]4O)[C@H](O)[C@H]3O)[C@H](O)[C@H]2O)[C@H](O)[C@@H](O)[C@@H]1O [hydrous crystal]")
"~10000 µg/mL"

###

Assay: Reducing power by the Somogyi-Nelson method, represented by DE
Assay type: physicochemical
Details: high-purity lyophilized saccharide preparations
Form field: DE (dextrose equivalent), reducing power (one value per entry).
Measure: DE (dextrose equivalent), reducing power

>>> reading("OC[C@H]1O[C@H](O[C@H]2O[C@H](CO)[C@@H](O[C@H]3O[C@H](CO)[C@@H](O[C@H]4O[C@H](CO)[C@@H](O[C@H]5O[C@H](CO)[C@@H](O[C@H]6O[C@H](CO)[C@@H](O[C@H]7O[C@H](CO)[C@@H](O)[C@H](O)[C@H]7O)[C@H](O)[C@H]6O)[C@H](O)[C@H]5O)[C@H](O)[C@H]4O)[C@H](O)[C@H]3O)[C@H](O)[C@H]2O)[C@H](O)[C@@H](O)[C@@H]1O")
0.23
>>> reading("OC[C@H]1O[C@H](O[C@H]2O[C@H](CO)[C@@H](O[C@H]3O[C@H](CO)[C@@H](O[C@H]4O[C@H](CO)[C@@H](O[C@H]5O[C@H](CO)[C@@H](O[C@H]6O[C@H](CO)[C@@H](O)[C@H](O)[C@H]6O)[C@H](O)[C@H]5O)[C@H](O)[C@H]4O)[C@H](O)[C@H]3O)[C@H](O)[C@H]2O)[C@H](O)[C@@H](O)[C@@H]1O")
0.27
>>> reading("OC[C@H]1O[C@H](O[C@H]2O[C@H](CO)[C@@H](O[C@H]3O[C@H](CO)[C@@H](O[C@H]4O[C@H](CO)[C@@H](O)[C@H](O)[C@H]4O)[C@H](O)[C@H]3O)[C@H](O)[C@H]2O)[C@H](O)[C@@H](O)[C@@H]1O")
0.35
>>> reading("OC[C@H]1O[C@H](O[C@H]2O[C@H](CO)[C@@H](O[C@H]3O[C@H](CO)[C@@H](O)[C@H](O)[C@H]3O)[C@H](O)[C@H]2O)[C@H](O)[C@@H](O)[C@@H]1O")
0.83
>>> reading("OC[C@H]1O[C@H](O[C@H]2O[C@H](CO)[C@@H](O[C@H]3O[C@H](CO)[C@@H](O[C@H]4O[C@H](CO)[C@@H](O[C@H]5O[C@H](CO)[C@@H](O)[C@H](O)[C@H]5O)[C@H](O)[C@H]4O)[C@H](O)[C@H]3O)[C@H](O)[C@H]2O)[C@H](O)[C@@H](O)[C@@H]1O")
0.10
